System: Escherichia coli IAI1
EXPERIMENT_NOTES: fold change of Cadaverine concentration vs plate DMSO controls (fold change (ratio)); higher = more amine produced, active = hit call of the paper (significant change in both replicates, either direction)
ASSAY_SETUP: incubation time: 27 h, anaerobic, 37 °C
Counter-ions that a name gives are not always drawn.
VALUE_TYPE: fold change of Cadaverine concentration
Reply briefly: the number, and no unit.

The recorded fold change of Cadaverine concentration for CN(C)C(=N)NC(=N)N [Metformin hydrochloride] (20 µM) is 0.962

So for CN(C)c1ccc2nc3ccc(=[N+](C)C)cc-3sc2c1 [Methylene blue] (20 µM) , the logged fold change of Cadaverine concentration turned out to be 0.941

get_value(item= O=C(O)Cc1ccccc1Nc1c(Cl)cccc1Cl [Diclofenac sodium] (20 µM) , readout=fold change of Cadaverine concentration) returns 1.01

Please fill in: fold change of Cadaverine concentration reported for OC[C@H]1O[C@@H](c2ccc(Cl)c(Cc3ccc(O[C@H]4CCOC4)cc3)c2)[C@H](O)[C@@H](O)[C@@H]1O [Empagliflozin] (20 µM) = 1.02

Lab note: measured fold change of Cadaverine concentration of CO[C@H]1/C=C/O[C@@]2(C)Oc3c(C)c(O)c4c(O)c(c(/C=N/N5CCN(C6CCCC6)CC5)c(O)c4c3C2=O)NC(=O)/C(C)=C\C=C\[C@H](C)[C@H](O)[C@@H](C)[C@@H](O)[C@@H](C)[C@H](OC(C)=O)[C@@H]1C [Rifapentine] (20 µM) was 1.92

Per the records, this compound ( CCOc1ccc2ccccc2c1C(=O)N[C@@H]1C(=O)N2[C@@H]1SC(C)(C)[C@@H]2C(=O)O [Nafcillin sodium salt monohydrate] (20 µM) ) has fold change of Cadaverine concentration equal to 1.02
